test system: glycogen synthase kinase-3 (GSK3A per assay name; protocol says GSK3B); assay: GSK3 binders on small-molecule microarrays, primary screen, biochemical, small-molecule microarray, 635 nm fluorescence, GSK3A (AID 1103); details: small-molecule microarray binding, fluorescence 635 nm; higher = more signal; note: the record names both GSK3A and GSK3B
# reported composite z-score; entries follow

{"compound": "O=C1C2C=CC(C(O)c3ccc(F)cc3)N(Nc3ccccc3)C2C(=O)N1c1ccccc1 (configuration not stated)", "composite z-score": -0.0052}
{"compound": "C=CCNC(=O)[C@@H]1[C@H]2C(=O)O[C@H](c3ccccc3)[C@H](c3ccccc3)N2[C@H](c2ccccc2OCCO)[C@@]12C(=O)Nc1ccc(C#CC3=CCCCC3)cc12", "composite z-score": 1.32}
{"compound": "Cc1ccccc1C(O)C1C=CC2C(=O)N(C)C(=O)C2N1Nc1ccccc1 (configuration not stated)", "composite z-score": 0.63}
{"compound": "O=C(NCc1ccccc1)[C@]1(CCS(=O)(=O)c2ccccc2)N=C(c2ccc(OCCCO)cc2)O[C@@H]1c1ccccc1", "composite z-score": 1.32}
{"compound": "CCCCCCc1nc(CCCc2cc3c(c(CCCCCC)n2)[Si](C(C)C)(C(C)C)OC3)cc2c1[Si](C(C)C)(C(C)C)OC2", "composite z-score": -0.242}
{"compound": "O=C1C2C=CC(C(O)c3ccc(B(O)O)cc3)N(Nc3ccccc3)C2C(=O)N1c1ccccc1 (configuration not stated)", "composite z-score": -1.15}
{"compound": "O=C1O[C@@H](c2ccccc2)[C@@H](c2ccccc2)N2[C@@H](c3ccc(OCCO)cc3)[C@]3(C(=O)Nc4ccc(C#CC5=CCCCC5)cc43)[C@@H](C(=O)O)[C@H]12", "composite z-score": 0.661}
{"compound": "[N-]=[N+]=NCc1ccccc1C[C@]1(C(=O)NCC(O)CO)N=C(c2ccc(OCCCO)cc2)O[C@H]1c1ccccc1N=[N+]=[N-] (some centres not stated)", "composite z-score": 0.091}
{"compound": "O=C(O)[C@H]1C[C@H]2C(=O)NCC(=O)N2[C@H]1c1ccc(O)cc1", "composite z-score": 0.504}
{"compound": "C=CC[C@@]1(C(=O)NCC(O)CO)N=C(c2ccc(OCCCO)cc2)O[C@@H]1c1ccccc1N=[N+]=[N-] (some centres not stated)", "composite z-score": -0.669}
{"compound": "O=C/C=C/c1ccc(Cl)cc1", "composite z-score": -0.966}
{"compound": "CCOC(=O)C[C@H]1[C@H](OC(=O)Cc2ccc3c(c2)OCO3)[C@@H](NC(=O)c2ccc(-c3ccccc3)cc2)c2cc(OCCCO)ccc2N1C(=O)c1ccccc1", "composite z-score": 0.367}

* * *

# reported z-score; entries follow
assay: inhibitors of hydroxyurea-induced Chk1 phosphorylation, primary screen, imaging, HeLa, phospho-Chk1 nuclear intensity (AID 1187); settings: hydroxyurea-induced phospho-Chk1 immunofluorescence imaging, higher = more signal; note: test concentration not given here

{"molecule": "CCCCC=C[C@@H](NC(=O)c1ccco1)c1ccccc1", "z-score": -0.7}
{"molecule": "[N-]=[N+]=NCc1ccccc1[C@H]1OC(c2ccc(OCCCO)cc2)=N[C@@]1(CCS(=O)(=O)c1ccccc1)C(=O)N1CCOCC1", "z-score": 0.246}
{"molecule": "[N-]=[N+]=Nc1ccccc1C[C@]1(C(=O)NCCN2CCOCC2)N=C(c2ccc(OCCCO)cc2)O[C@H]1c1ccccc1", "z-score": 0.535}
{"molecule": "COc1ccc(C#Cc2ccc3c(c2)[C@]2(C(=O)N3)[C@H](C(=O)NC[C@H](O)c3ccccc3)[C@H]3C(=O)O[C@H](c4ccccc4)[C@H](c4ccccc4)N3[C@@H]2c2ccccc2OCCO)cc1", "z-score": -0.118}
{"molecule": "[N-]=[N+]=NCc1ccccc1C[C@@]1(C(=O)NCC(O)CO)N=C(c2ccc(OCCCO)cc2)O[C@@H]1c1ccccc1CN=[N+]=[N-] (stereo partly drawn)", "z-score": 0.0477}
{"molecule": "O=C/C=C/c1ccc2c(c1)OCO2", "z-score": 0.774}
{"molecule": "C=CCC(OC(C)=O)[C@@H]1[C@@H](N(Cc2cc3ccccc3o2)C(=O)c2ccc(C)cc2)c2cc(OCCCO)ccc2N1C(=O)c1ccc2ccccc2c1 (stereo partly drawn)", "z-score": 0.0758}
{"molecule": "COC(=O)[C@@]1(Cc2ccccc2N=[N+]=[N-])COC(c2ccc(OCCCO)cc2)=N1", "z-score": 0.135}
